Tested on: Saccharomyces cerevisiae
Test: protein stability index of tFT-peptide fusion (C-terminal peptide) (PSI (0-1 scale)); higher = more stable (slower turnover)
Conditions: genetic background: das1 deletion; temperature: 30 C
Would you please tag the item y when its protein stability index is 0.7 or above, and n when it is below?

Below, 5 sequences whose answers are already recorded.
VWLAAALPLAFI [PRM7 C-terminal 12 aa] : n
EISNRDENSIPE [MUB1 C-terminal 12 aa] : y
TYKRIKQDEKTD [ALG12 C-terminal 12 aa] : y
VKKCWEKEKDGI [MKK2 C-terminal 12 aa] : n
IVRPLELKYFGR [FCY22 C-terminal 12 aa] : y

Then there is this sequence:
Incoming: Please indicate if the recorded protein stability index for FGYESTDQILKL [NNR1 C-terminal 12 aa] meets or exceeds 0.7.
Outgoing: y

Hey, just so you know, these numbers are from the supplement of paper PMC10724198.
